The measured values listed here are drawn from ChEMBL document CHEMBL1143299.

For each of the compounds below, state its pIC50.
System: K562
Assay: Cytotoxicity agaisnt human K562 cells by MTT assay
Format: functional, cell-based
Entry type: numeric. Quantity: pIC50, the -log10 of concentration in molar units.

Record CCOC(=O)c1ccc(S(=O)(=O)NC(C2=CC(=O)c3c(O)ccc(O)c3C2=O)C(C)C)cc1 (configuration not stated) , field pIC50: 4.74

Record CC(NS(=O)(=O)c1ccc(Cl)cc1)C1=CC(=O)c2c(O)ccc(O)c2C1=O (configuration not stated) , field pIC50: 4.70

* * *

For each of the compounds below, state its pIC50.
Test: Cytotoxicity agaisnt human Rh30 cells by SRB assay
Assay type: functional, cell-based
Conditions: SJRH30
Entry type: numeric. Quantity: pIC50, the -log10 of concentration in molar units.

Record CCOC(=O)c1ccc(S(=O)(=O)NC(C2=CC(=O)c3c(O)ccc(O)c3C2=O)C(C)C)cc1 (configuration not stated) , field pIC50: 5.59

Record CC(NS(=O)(=O)c1ccc(Cl)cc1)C1=CC(=O)c2c(O)ccc(O)c2C1=O (configuration not stated) , field pIC50: 5.72
